Attribution: patent US20250250227A1

System: Female BALB/c mice
Assay: Performance evaluation of in vivo delivery of Fluc mRNA lipid nanoparticle (IVIS, body and organs)
Conditions: Fluc mRNA LNP, IV, 6 hours after injection
A collection of compounds and their measured (Spleen/Total Flux) * 100%
Expressed in %, but write only the number.

Please review the entries below; each comes with its answer.
compound	result_type	readout_units	data_value
CCCCCCOC(=O)CCN(CCCN(C)C)C(=O)OC(CCCCCCCCC(=O)OC(CCCCCC)CCCCCC)CCCCCCCCC(=O)OC(CCCCCC)CCCCCC [Compound 266]	(Spleen/Total Flux) * 100%	%	0.60
CCCCCCCN(CCCN(C)C)C(=O)OC(CCCCCCCCC(=O)OC(CCCCCC)CCCCCC)CCCCCCCCC(=O)OC(CCCCCC)CCCCCC [Compound 110]	(Spleen/Total Flux) * 100%	%	0.36
CCCCCCC(CCCCCC)OC(=O)CCCCCCCCC(CCCCCCCCC(=O)OC(CCCCCC)CCCCCC)OC(=O)N(CCCN(C)C)CCC(=O)OC(C)C [Compound 316]	(Spleen/Total Flux) * 100%	%	2.49
CCCCCCCOC(=O)CCN(CCCN(C)C)C(=O)OC(CCCCCCCCC(=O)OCC(CCCC)CCCCCC)CCCCCCCCC(=O)OCC(CCCC)CCCCCC (stereo not drawn) [Compound 373]	(Spleen/Total Flux) * 100%	%	1.45
CCCCCCC(CCCCCC)OC(=O)CCCCCCCCC(CCCCCCCCC(=O)OC(CCCCCC)CCCCCC)OC(=O)N(CCCCC)CCCN(C)C [Compound 108]	(Spleen/Total Flux) * 100%	%	0.30
CCCCCCC(CCCCCC)OC(=O)CCCCCCCCC(CCCCCCCCC(=O)OC(CCCCCC)CCCCCC)OC(=O)N(CCCN1CCCC1)CC(=O)OCC [Compound 367]	(Spleen/Total Flux) * 100%	%	0.46
CCCCCCC(CCCCCC)OC(=O)CCCCCCCCC(CCCCCCCCC(=O)OC(CCCCCC)CCCCCC)OC(=O)N(CCCCCC(=O)OCC)CCCN1CCCC1 [Compound 365]	(Spleen/Total Flux) * 100%	%	0.66
CCCCCCC(CCCCCC)OC(=O)CCCCCCCCC(CCCCCCCCC(=O)OC(CCCCCC)CCCCCC)OC(=O)N(CCCC(=O)OCCCCC)CCCN(C)C [Compound 260]	(Spleen/Total Flux) * 100%	%	0.80
CCCCCCC(CCCCCC)OC(=O)CCCCCCCCC(CCCCCCCCC(=O)OC(CCCCCC)CCCCCC)OC(=O)N(CCCN(C)C)CC(=O)OCCCCC [Compound 271]	(Spleen/Total Flux) * 100%	%	1.78
CCCCCCC(CCCCCC)OC(=O)CCCCCCCCC(CCCCCCCCC(=O)OC(CCCCCC)CCCCCC)OC(=O)N(CCCN(C)C)CCC(=O)OC(CC)CCC (stereo not drawn) [Compound 321]	(Spleen/Total Flux) * 100%	%	2.04

Short answer for CCCCCCC(CCCCCC)OC(=O)CCCCCCCCC(CCCCCCCCC(=O)OC(CCCCCC)CCCCCC)OC(=O)N(CCCN(C)C)CC(=O)OC(CC)CCCCC (stereo not drawn) [Compound 338] : (Spleen/Total Flux) * 100% was 0.51

Short answer for CC/C=C\CCOC(=O)CCCN(CCCN(C)C)C(=O)OC(CCCCCCCCC(=O)OC(CCCCCC)CCCCCC)CCCCCCCCC(=O)OC(CCCCCC)CCCCCC [Compound 277] : (Spleen/Total Flux) * 100% was 2.68

###

System: Female BALB/c mice
Assay: Performance evaluation of in vivo delivery of Fluc mRNA lipid nanoparticle (IVIS, body and organs)
Conditions: Fluc mRNA LNP, IV, 6 hours after injection
result_type: (Spleen/Total Flux) * 100% (%)
Expressed in %, but write only the number.

Please review the entries below; each comes with its answer.
In [3]: df
Out[3]:
                                   compound                 result_type  readout_units  data_value
0  CCC/C=C\COC(=O)CCCN(CCCN(C)C)C(=O)OC(CCCCCCCCC(=O)OC(CCCCCC)CCCCCC)CCCCCCCCC(=O)OC(CCCCCC)CCCCCC  (Spleen/Total Flux) * 100%              %        0.61
1  CCCCCCOC(=O)CN(CCCN(C)C)C(=O)OC(CCCCCCCCC(=O)OC(CCCCCC)CCCCCC)CCCCCCCCC(=O)OC(CCCCCC)CCCCCC  (Spleen/Total Flux) * 100%              %        0.75
2  CCCCCCCOC(=O)CN(CCCN(C)C)C(=O)OC(CCCCCCCCC(=O)OCC(CCCC)CCCCCC)CCCCCCCCC(=O)OCC(CCCC)CCCCCC (stereo not shown)  (Spleen/Total Flux) * 100%              %        1.88
3  CCCC/C=C\CCOC(=O)CCCN(CCCN(C)C)C(=O)OC(CCCCCCCCC(=O)OC(CCCCCC)CCCCCC)CCCCCCCCC(=O)OC(CCCCCC)CCCCCC  (Spleen/Total Flux) * 100%              %        0.73
4  CCCCCCC(CCCCCC)OC(=O)CCCCCCCCC(CCCCCCCCC(=O)OC(CCCCCC)CCCCCC)OC(=O)N(CCCC(=O)OCCCC)CCCN(C)C  (Spleen/Total Flux) * 100%              %        2.02

Short answer for CC/C=C\COC(=O)CCCN(CCCN(C)C)C(=O)OC(CCCCCCCCC(=O)OC(CCCCCC)CCCCCC)CCCCCCCCC(=O)OC(CCCCCC)CCCCCC : (Spleen/Total Flux) * 100% was 1.08

Short answer for CCCCCCC(CCCCCC)OC(=O)CCCCCCCCC(CCCCCCCCC(=O)OC(CCCCCC)CCCCCC)OC(=O)N(CCCCN1CCCC1)CC(=O)OCC : (Spleen/Total Flux) * 100% was 3.15

###

System: Female BALB/c mice
Experiment: Performance evaluation of in vivo delivery of Fluc mRNA lipid nanoparticle (IVIS, body and organs)
Conditions: Fluc mRNA LNP, IV, 6 hours after injection
Experimental: Animal preparation: Female BALB/c mice of 6-8 weeks old were selected and raised in an SPF grade breeding room. Animal testing was conducted in strict accordance with the guidelines of national health institutions and animal ethics requirements. […] The multiple of spleen delivery/total delivery of fluorescence expression intensity induced by lipid nanoparticle encapsulating luciferase mRNA (Fluc mRNA) with a representative amino lipid compound to amino lipid compound 118 is shown in Table 5.
result_type: (Spleen/Total Flux) * 100% (%)
Expressed in %, but write only the number.

Please review the entries below; each comes with its answer.
compound	(Spleen/Total Flux) * 100% (%)
CC/C=C\COC(=O)CCCCCN(CCCN(C)C)C(=O)OC(CCCCCCCCC(=O)OC(CCCCCC)CCCCCC)CCCCCCCCC(=O)OC(CCCCCC)CCCCCC [Compound 284]	1.52
CCCCCCC(CCCCCC)OC(=O)CCCCCCCCC(CCCCCCCCC(=O)OC(CCCCCC)CCCCCC)OC(=O)N(CCCN(C)C)CCC(=O)OCCCCC [Compound 265]	0.49

Short answer for CCCCCCC(CCCCCC)OC(=O)CCCCCCCCC(CCCCCCCCC(=O)OC(CCCCCC)CCCCCC)OC(=O)N(CCCCCC)CCCN(C)C [Compound 109] : (Spleen/Total Flux) * 100% was 0.30

Short answer for CCCCCCCC(=O)N(CCCN(C)C)C(CCCCCCCCC(=O)OC(CCCCCC)CCCCCC)CCCCCCCCC(=O)OC(CCCCCC)CCCCCC [Compound 118, reference compound] : (Spleen/Total Flux) * 100% was 0.34

###

Assay: Preparation and characterisation of mRNA-encapsulating lipid nanoparticle (encapsulation efficiency, particle size)
Assay type: physicochemical
Conditions: LNP encapsulating Fluc mRNA; Lipid:DSPC:CHO-HP:M-DMG-2000 48:10:40.5:1.5
result_type: Encapsulation efficiency (%)
Expressed in %, but write only the number.

Please review the entries below; each comes with its answer.
>>> print(df.to_string())
                                   molecule  readout_units  data_value
0  CCCCCCC(CCCCCC)OC(=O)CCCCCCCCC(CCCCCCCCC(=O)OC(CCCCCC)CCCCCC)OC(=O)N(CCCC(=O)OCCCC)CCCN(C)C              %       94.08
1  CCCC/C=C\CCOC(=O)CCCN(CCCN(C)C)C(=O)OC(CCCCCCCCC(=O)OC(CCCCCC)CCCCCC)CCCCCCCCC(=O)OC(CCCCCC)CCCCCC              %       92.43

// next entry
Short answer for CCCCCCC(CCCCCC)OC(=O)CCCCCCCCC(CCCCCCCCC(=O)OC(CCCCCC)CCCCCC)OC(=O)N(CCCN(C)C)CCC(=O)OC(CC)CCC (stereo not drawn) : Encapsulation efficiency was 93.85
